- System: Huh-7
- Assay Name: Cytotoxicity using HCV replicon assay
- Format: functional
- Test Settings: Homo sapiens
This listing pairs compounds with measured CC50.

Some compounds with recorded CC50:
Molecular String	CC50
CCN1N=C(N)c2cn([C@@H]3O[C@H](CO)[C@@H](O)[C@@]3(C)O)c3ncnc1c23	> 200 µM
CC(=O)NC1=NN(CCO)c2ncnc3c2c1cn3[C@@H]1O[C@H](CO)[C@@H](O)[C@@]1(C)O	200 µM
CC(=O)NC1=NN(C)c2ncnc3c2c1cn3[C@@H]1O[C@H](CO)[C@@H](O)[C@@]1(C)O	300 µM
NC1=NN(CCO)c2ncnc3c2c1cn3[C@@H]1O[C@H](CO)[C@@H](O)[C@H]1O	> 300 µM
C[C@@]1(O)[C@H](O)[C@@H](CO)O[C@H]1n1cc2c3c(ncnc31)N(CCO)N=C2N	> 300 µM
NC1=NN(Cc2ccccc2)c2ncnc3c2c1cn3[C@@H]1O[C@H](CO)[C@@H](O)[C@H]1O	> 300 µM
CCCCN1N=C(N)c2cn([C@@H]3O[C@H](CO)[C@@H](O)[C@@]3(C)O)c3ncnc1c23	> 300 µM
CCN1N=C(N)c2cn([C@@H]3O[C@H](CO)[C@@H](O)[C@H]3O)c3ncnc1c23	150 µM

Lookup: Find the measured CC50 of CN1N=C(N)c2cn([C@@H]3O[C@H](CO)[C@@H](O)[C@@]3(C)O)c3ncnc1c23 with Huh-7 as test system.
Found: > 300 µM

Lookup: Find the measured CC50 of CCCN1N=C(N)c2cn([C@@H]3O[C@H](CO)[C@@H](O)[C@@]3(C)O)c3ncnc1c23 with Huh-7 as test system.
Found: > 300 µM
